biological target: leucine-rich repeat kinase 2 (LRRK2) (Homo sapiens); construct: LRRK2^RCKW (ROC, COR, Kinase, WD40); test: PhosphoSense kinase activity assay; DSF ΔTm […] K on LRRK2^KW; type: biochemical
Sequence (Q5S007 1327-2527 limits assumed): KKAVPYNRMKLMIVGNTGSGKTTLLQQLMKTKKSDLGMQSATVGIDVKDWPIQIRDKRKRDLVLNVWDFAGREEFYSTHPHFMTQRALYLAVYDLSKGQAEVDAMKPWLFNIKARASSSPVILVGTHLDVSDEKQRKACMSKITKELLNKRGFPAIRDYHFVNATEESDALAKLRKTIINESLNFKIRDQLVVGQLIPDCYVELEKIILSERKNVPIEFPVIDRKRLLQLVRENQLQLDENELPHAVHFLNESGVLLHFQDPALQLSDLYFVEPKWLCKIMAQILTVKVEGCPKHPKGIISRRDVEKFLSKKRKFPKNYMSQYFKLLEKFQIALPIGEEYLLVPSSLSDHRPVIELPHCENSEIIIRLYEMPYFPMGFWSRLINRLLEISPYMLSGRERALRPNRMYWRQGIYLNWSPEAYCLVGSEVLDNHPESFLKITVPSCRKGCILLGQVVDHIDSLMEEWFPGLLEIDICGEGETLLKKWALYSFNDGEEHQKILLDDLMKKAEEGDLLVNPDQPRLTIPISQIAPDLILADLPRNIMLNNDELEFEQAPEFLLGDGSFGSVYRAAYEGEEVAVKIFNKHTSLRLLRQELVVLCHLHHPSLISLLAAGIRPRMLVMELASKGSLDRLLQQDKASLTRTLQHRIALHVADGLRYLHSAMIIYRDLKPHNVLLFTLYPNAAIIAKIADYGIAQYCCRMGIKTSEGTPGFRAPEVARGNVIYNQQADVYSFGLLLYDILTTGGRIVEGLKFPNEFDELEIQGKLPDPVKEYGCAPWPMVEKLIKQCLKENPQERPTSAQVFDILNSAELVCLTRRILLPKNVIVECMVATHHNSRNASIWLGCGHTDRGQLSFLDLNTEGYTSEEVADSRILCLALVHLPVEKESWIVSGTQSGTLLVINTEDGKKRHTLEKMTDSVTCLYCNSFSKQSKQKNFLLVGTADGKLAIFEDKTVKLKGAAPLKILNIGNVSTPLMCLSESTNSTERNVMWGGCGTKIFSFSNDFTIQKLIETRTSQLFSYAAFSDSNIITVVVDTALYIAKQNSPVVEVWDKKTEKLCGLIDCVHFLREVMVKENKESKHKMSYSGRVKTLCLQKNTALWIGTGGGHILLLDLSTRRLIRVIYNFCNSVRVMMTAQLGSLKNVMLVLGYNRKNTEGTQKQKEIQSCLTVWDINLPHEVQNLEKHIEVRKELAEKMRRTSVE
quantityMeasured: pIC50
By convention, pIC50 is the negative base-10 log of a molar concentration.

Exam item: Fill in the blank: the reported pIC50 of NC(=O)C1(C(=O)N(c2cccc(-c3c[nH]c4ncnc(N5CCOCC5)c34)c2)c2ccc(F)c(Br)c2F)CC1 is ____.
Marked response: 6.87

###

molecular target: leucine-rich repeat kinase 2 (LRRK2) (Homo sapiens); construct: LRRK2^RCKW (ROC, COR, Kinase, WD40); assay: biochemical; design: PhosphoSense (AssayQuant) kinase activity assay with purified LRRK2 RCKW
Mark each entry criterion met if its IC50 sits below 3000 nM, and criterion not met for all others.

A selection of reference data follows.
Cn1cc(N(C(=O)C2(C(N)=O)CC2)c2cccc(-c3c[nH]c4ncnc(N5CCOCC5)c34)c2)cn1    criterion met
Cc1cc(-c2c[nH]c3ncnc(N4CCOCC4)c23)cc(N(C(=O)C2(C(N)=O)CC2)c2ccc(F)cc2)c1    criterion met
Cc1ccc(N(C(=O)C2(C(N)=O)CC2)c2ccc(F)cc2)cc1-c1c[nH]c2ncnc(N3CCOCC3)c12    criterion not met
Cc1ccc(-c2c[nH]c3ncnc(N4CCOCC4)c23)cc1N(C(=O)C1(C(N)=O)CC1)c1ccc(F)cc1    criterion not met
CN1CCc2cc(N(C(=O)C3(C(N)=O)CC3)c3cccc(-c4c[nH]c5ncnc(N6CCOCC6)c45)c3)ccc2C1    criterion not met

Exam item: Hi there! Is IC50 for NC(=O)C1(C(=O)N(c2ccc(F)cc2)c2cccc(-c3c[nH]c4ncnc(N5CCOCC5)c34)c2)CCCC1 below 3000 nM, do you know?
Marked response: criterion met

Exam item: Hi there! Is IC50 for NC(=O)C1(C(=O)N(c2ccc(F)cc2)c2cccc(-c3c[nH]c4ncnc(N5CCOCC5)c34)c2)CC1 below 3000 nM, do you know?
Marked response: criterion met

Exam item: Hi there! Is IC50 for NC(=O)C1(C(=O)N(c2cccc(-c3c[nH]c4ncnc(N5CCOCC5)c34)c2)c2cccc3c2CCC3)CC1 below 3000 nM, do you know?
Marked response: criterion met

###

Each entry below carries its recorded dTm LRRK2(KW).
biological target: LRRK2^KW (Homo sapiens, UniProt Q5S007); construct: Kinase and WD40 domain construct (KW); parameters: DSF thermal shift of purified LRRK2 KW construct with compound; settings: binder
Sequence (Q5S007 whole entry, the tested form may be a part): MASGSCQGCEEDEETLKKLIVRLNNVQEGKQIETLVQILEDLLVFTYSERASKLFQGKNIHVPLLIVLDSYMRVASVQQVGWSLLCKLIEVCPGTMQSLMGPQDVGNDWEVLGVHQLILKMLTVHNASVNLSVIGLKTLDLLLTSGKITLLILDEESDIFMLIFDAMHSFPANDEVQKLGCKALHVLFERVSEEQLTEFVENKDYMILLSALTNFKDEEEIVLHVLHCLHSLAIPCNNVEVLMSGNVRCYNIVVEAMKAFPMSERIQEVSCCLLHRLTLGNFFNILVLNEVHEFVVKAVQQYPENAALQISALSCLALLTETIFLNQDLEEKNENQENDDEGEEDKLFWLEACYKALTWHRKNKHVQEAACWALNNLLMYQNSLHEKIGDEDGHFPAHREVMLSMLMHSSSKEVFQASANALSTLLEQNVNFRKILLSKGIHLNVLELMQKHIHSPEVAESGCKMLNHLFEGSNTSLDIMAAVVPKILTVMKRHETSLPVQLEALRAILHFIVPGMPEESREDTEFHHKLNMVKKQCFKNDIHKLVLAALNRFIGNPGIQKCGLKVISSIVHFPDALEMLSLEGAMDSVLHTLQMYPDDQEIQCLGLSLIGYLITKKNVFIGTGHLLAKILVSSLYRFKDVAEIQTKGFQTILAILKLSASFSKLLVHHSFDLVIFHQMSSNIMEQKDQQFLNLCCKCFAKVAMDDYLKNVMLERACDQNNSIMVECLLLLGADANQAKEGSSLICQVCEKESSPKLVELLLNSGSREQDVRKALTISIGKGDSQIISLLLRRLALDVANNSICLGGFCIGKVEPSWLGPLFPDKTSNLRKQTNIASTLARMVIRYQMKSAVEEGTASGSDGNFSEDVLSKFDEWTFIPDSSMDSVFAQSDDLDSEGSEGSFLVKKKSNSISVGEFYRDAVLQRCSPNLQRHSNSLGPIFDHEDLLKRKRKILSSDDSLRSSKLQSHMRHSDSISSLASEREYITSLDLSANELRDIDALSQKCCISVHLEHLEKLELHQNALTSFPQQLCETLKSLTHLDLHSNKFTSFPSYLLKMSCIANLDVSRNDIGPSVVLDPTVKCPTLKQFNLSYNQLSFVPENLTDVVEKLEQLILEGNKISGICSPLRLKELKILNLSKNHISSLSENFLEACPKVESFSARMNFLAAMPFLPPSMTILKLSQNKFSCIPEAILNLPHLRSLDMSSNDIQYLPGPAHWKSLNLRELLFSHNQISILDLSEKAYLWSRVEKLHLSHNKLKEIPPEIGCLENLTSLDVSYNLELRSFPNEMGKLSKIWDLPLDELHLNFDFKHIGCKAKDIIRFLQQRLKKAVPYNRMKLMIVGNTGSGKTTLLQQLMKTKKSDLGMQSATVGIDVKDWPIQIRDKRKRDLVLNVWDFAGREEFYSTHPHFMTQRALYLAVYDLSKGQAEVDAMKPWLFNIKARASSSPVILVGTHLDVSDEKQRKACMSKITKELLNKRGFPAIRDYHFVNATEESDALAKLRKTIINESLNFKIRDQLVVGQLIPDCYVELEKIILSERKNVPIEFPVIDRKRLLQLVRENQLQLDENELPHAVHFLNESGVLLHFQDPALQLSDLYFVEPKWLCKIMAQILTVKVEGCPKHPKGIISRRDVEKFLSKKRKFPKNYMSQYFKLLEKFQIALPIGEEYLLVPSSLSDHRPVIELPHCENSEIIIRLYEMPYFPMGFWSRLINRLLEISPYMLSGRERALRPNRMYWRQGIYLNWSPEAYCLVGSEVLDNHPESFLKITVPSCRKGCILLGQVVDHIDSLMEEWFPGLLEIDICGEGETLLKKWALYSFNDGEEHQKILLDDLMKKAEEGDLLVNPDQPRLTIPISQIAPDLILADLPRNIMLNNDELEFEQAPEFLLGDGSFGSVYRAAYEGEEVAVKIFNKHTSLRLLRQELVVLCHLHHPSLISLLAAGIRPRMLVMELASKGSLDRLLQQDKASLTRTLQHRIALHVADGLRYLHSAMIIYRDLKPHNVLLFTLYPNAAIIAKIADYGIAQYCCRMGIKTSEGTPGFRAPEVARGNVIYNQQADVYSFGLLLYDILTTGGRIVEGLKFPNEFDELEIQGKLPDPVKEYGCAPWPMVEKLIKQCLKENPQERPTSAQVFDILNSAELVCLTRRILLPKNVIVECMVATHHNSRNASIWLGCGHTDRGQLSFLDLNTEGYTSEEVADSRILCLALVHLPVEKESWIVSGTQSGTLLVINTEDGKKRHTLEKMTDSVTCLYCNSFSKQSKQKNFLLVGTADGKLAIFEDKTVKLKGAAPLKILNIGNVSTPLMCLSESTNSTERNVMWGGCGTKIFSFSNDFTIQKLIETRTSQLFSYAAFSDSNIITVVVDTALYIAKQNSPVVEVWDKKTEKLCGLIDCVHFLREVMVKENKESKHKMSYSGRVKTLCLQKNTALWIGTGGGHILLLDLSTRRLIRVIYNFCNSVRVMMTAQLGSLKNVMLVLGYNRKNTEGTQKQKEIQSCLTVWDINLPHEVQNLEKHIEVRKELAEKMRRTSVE
Include the unit right after the number.

Some entries whose results are on file:
Cc1ccc(NC(=O)c2cccc(C(C)(C)C#N)c2)cc1Nc1ccc2ncn(C)c(=O)c2c1 [AZ 628]    -0.5 K
Cc1ccc(-n2nc(C(C)(C)C)cc2NC(=O)Nc2cc(COc3cccnc3)[nH]n2)cc1 [PF-4618433]    11 K
CC1(C)CNc2cc(NC(=O)c3cccnc3NCc3ccncc3)ccc21 [Motesanib]    -0.5 K
N#CC1(c2ccc(NC(=O)c3cccnc3NCc3ccncc3)cc2)CCCC1 [Apatinib]    -1 K
Cc1ccc(C(=O)Nc2cccc(C(F)(F)F)c2)cc1Nc1nc(-c2cccnc2)nc2c1cnn2C [NVP-BHG712]    -0.5 K
COc1cc(Oc2ccnc3cc(OC)c(OC)cc23)ccc1NC(=O)NC(C)c1nccs1 (centres unmarked) [KI20227]    3 K

Exam item: Fill in the blank: the reported dTm LRRK2(KW) of COc1cc2c(Nc3ccc(NC(=O)c4ccccc4)cc3)ncnc2cc1OCCCN1CCOCC1 [ZM447439] is ____.
Marked response: 6.5 K

Exam item: Fill in the blank: the reported dTm LRRK2(KW) of Cc1ccc(NC(=O)c2cccc(N(C)C)c2)cc1NC(=O)c1ccc(O)cc1 [ZM336372] is ____.
Marked response: -1 K

Exam item: Fill in the blank: the reported dTm LRRK2(KW) of CNC(=O)c1cc(Oc2ccc(NC(=O)Nc3ccc(Cl)c(C(F)(F)F)c3)c(F)c2)ccn1 [Regorafinib] is ____.
Marked response: 5.5 K

Exam item: Fill in the blank: the reported dTm LRRK2(KW) of CCN1CCN(Cc2ccc(NC(=O)c3ccc(C)c(NC(=O)c4cncc(-c5cccs5)c4)c3)cc2C(F)(F)F)CC1 [ALW-II-41-27] is ____.
Marked response: -0.5 K

Exam item: Fill in the blank: the reported dTm LRRK2(KW) of Cc1cn(-c2cc(NC(=O)c3ccc(C)c(Nc4nccc(-c5cccnc5)n4)c3)cc(C(F)(F)F)c2)cn1 [Nilotinib] is ____.
Marked response: -2.5 K
